# assay-text: chemical genetic growth profiling, strain panel (AID 1159580);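 further: tested at 20 µM; growth read once vehicle control cultures reached saturation at 30 °C; 1 = growth at the plate median or of vehicle wells; lower values mean less growth of the strain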
# recorded-conditions: S. cerevisiae deletion strains, growth OD, locus YML120C, strain ndi1, active compounds read low
The campaign covered roughly 5,500 compounds. About 2,000 (36%) were called active. Roughly 18% stayed inconclusive and do not appear here. The list shows a part of the results.
Listing of entries alongside the reported normalized growth.
Lab note: record just the number, no unit beside it.

Solved cases (5 shown):
{"molecule": "CC(=O)OCC(=O)[C@@]1(O)CCC2C3CC[C@@H]4C[C@H](O)CC[C@]4(C)C3C(=O)C[C@@]21C (stereo partly specified)", "normalized growth": 1.01}
{"molecule": "C/C(=C\\C(=O)OCCCCCCCCC(=O)O)C[C@@H]1OC[C@H](C[C@@H]2O[C@H]2[C@@H](C)[C@H](C)O)[C@@H](O)[C@H]1O", "normalized growth": 0.979}
{"molecule": "CC(=O)Nc1ccc(O)cc1", "normalized growth": 1.02}
{"molecule": "CC(C(=O)O)[C@H]1CCC2C3CC=C4C[C@@H](O)CC[C@]4(C)C3CC[C@@]21C (stereo partly specified)", "normalized growth": 1.01}
{"molecule": "CCOC(=O)C1C(C=C(C)C)C1(C)C (stereo unspecified)", "normalized growth": 0.994}

Read off the recorded normalized growth for `CC(C)(Oc1ccc(Cl)cc1)C(=O)O` 0.983

Read off the recorded normalized growth for `Nc1ccc(C(=O)O)c(O)c1` 0.978

Read off the recorded normalized growth for `NCC(=O)CCC(=O)O` 0.983

Read off the recorded normalized growth for CC(=O)[C@H]1CCC2C3CC=C4C[C@@H](OC(=O)CCC(=O)O)CC[C@]4(C)C3CC[C@@]21C (stereo partly specified) 0.9

Read off the recorded normalized growth for C[C@@H]1CC[C@@]2(OC1)OC1C(O)C3C4CC[C@H]5C[C@H](O[C@@H]6O[C@H](CO)[C@H](O[C@@H]7O[C@H](CO)[C@@H](O)[C@H](O[C@@H]8OC[C@@H](O)[C@H](O)[C@H]8O)[C@H]7O[C@@H]7O[C@H](CO)[C@H](O)[C@H](O[C@@H]8O[C@H](CO)[C@@H](O)[C@H](O)[C@H]8O)[C@H]7O)[C@H](O)[C@H]6O)[C@H](O)C[C@]5(C)C4CC[C@]3(C)C1[C@@H]2C (stereo partly specified) 0.925

Read off the recorded normalized growth for `Nc1ccc(C(=O)Oc2ccccc2)c(O)c1` 0.904

---

# assay-text: chemical genetic growth profiling, strain panel (AID 1159580);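 further: tested at 20 µM; growth read once vehicle control cultures reached saturation at 30 °C; 1 = growth at the plate median or of vehicle wells; lower values mean less growth of the strain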
# recorded-conditions: S. cerevisiae deletion strains, growth OD, locus YLR221C, strain rsa3, active compounds read low
Screen size: about 5,500 compounds; about 2,000 (36%) were called active. Another 18% or so got no clear call; they are omitted. Some of the results follow.
quantity-name: normalized growth
Lab note: record just the number, no unit beside it.

Solved cases (8 shown):
{"molecule": "O=c1c(-c2ccc(O)cc2)coc2cc(O)cc(O)c12", "quantity-name": "normalized growth", "value": 1}
{"molecule": "S=c1ccss1", "quantity-name": "normalized growth", "value": 0.924}
{"molecule": "CC(=O)Nc1ccc(OC(=O)c2ccccc2O)cc1", "quantity-name": "normalized growth", "value": 0.871}
{"molecule": "CN(C)C(=O)Oc1cc(OC(=O)N(C)C)cc(C(O)CNC(C)(C)C)c1 (stereo not drawn)", "quantity-name": "normalized growth", "value": 1.02}
{"molecule": "C=C1C(N)CC2CC1C2(C)C (stereo not drawn)", "quantity-name": "normalized growth", "value": 1}
{"molecule": "Nc1ccc(C(=O)O)c(O)c1", "quantity-name": "normalized growth", "value": 0.968}
{"molecule": "Nc1ccc(C(=O)Oc2ccccc2)c(O)c1", "quantity-name": "normalized growth", "value": 0.932}
{"molecule": "CC(C)=CCc1c2c(c(O)c3c(=O)c(O)c(-c4ccccc4)oc13)C=CC(C)(C)O2", "quantity-name": "normalized growth", "value": 0.835}

Read off the recorded normalized growth for `CC(=O)Nc1cccc(O)c1` 0.972

Read off the recorded normalized growth for `COc1ccc(-c2coc3cc(OC(C)=O)cc(OC(C)=O)c3c2=O)cc1` 0.922

Read off the recorded normalized growth for `CC(=O)Oc1c(-c2ccccc2)oc2c(CC=C(C)C)c3c(c(OC(C)=O)c2c1=O)C=CC(C)(C)O3` 1.04

Read off the recorded normalized growth for `O=c1c(-c2ccccc2)coc2cc(O)cc(O)c12` 0.923

Read off the recorded normalized growth for `CC(=O)Nc1ccc(O)cc1` 0.989
